target: GPR73 (prokineticin 1 receptor) (Homo sapiens, UniProt Q8TCW9); construct: expressed in transfected cells; host or cells: HEK 293; assay: PK1 functional assay: Ca2+ mobilization on the FLIPR; format: cell-based; details: 10 µM; read-out: Ca^2+ Mobilization % Inh @10 µM
Sequence (Q8TCW9 whole entry, species assumed): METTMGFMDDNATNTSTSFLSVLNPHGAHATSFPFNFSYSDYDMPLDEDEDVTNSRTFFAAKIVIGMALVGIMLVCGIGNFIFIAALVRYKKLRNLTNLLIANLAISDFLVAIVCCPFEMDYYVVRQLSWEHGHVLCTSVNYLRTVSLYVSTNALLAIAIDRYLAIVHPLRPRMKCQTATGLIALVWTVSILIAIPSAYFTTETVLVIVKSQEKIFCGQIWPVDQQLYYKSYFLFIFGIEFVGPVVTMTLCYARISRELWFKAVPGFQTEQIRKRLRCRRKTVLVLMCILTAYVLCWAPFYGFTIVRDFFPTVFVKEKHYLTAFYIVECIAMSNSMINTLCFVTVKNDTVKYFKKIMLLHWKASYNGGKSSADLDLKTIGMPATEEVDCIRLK
Recorded inhibition at 10 µM by entry
The response must be a number in % with no trailing unit.

INSERT INTO assay_data (item_smiles, readout_type, numeric_result) VALUES
  ('Nc1nc2ccccc2n1CCNc1nc(=O)n(Cc2ccc(Cl)c(Cl)c2)c(=O)n1Cc1ccc2c(c1)CCO2', 'inhibition at 10 µM', 90),
  ('NC1=Nc2ccccc2CN1CCNc1nc(=O)n(Cc2ccc(F)cc2)c(=O)n1Cc1ccc(OC(F)(F)F)cc1', 'inhibition at 10 µM', 100),
  ('CCc1ccc(Cn2c(=O)nc(NCCn3c(N)nc4ccccc43)n(Cc3ccc(OC(F)F)cc3)c2=O)cc1', 'inhibition at 10 µM', 94),
  ('COc1ccc(Cn2c(NCCNc3nc4ccccc4[nH]3)nc(=O)n(Cc3ccc(Cl)c(Cl)c3)c2=O)cc1', 'inhibition at 10 µM', 40.4),
  ('COc1ccc(Cn2c(NCCn3c(N)nc4ccc(Cl)cc43)nc(=O)n(Cc3ccc(F)cc3)c2=O)cc1', 'inhibition at 10 µM', 90),
  ('Nc1nccn1CCNc1nc(=O)n(Cc2ccc(F)cc2)c(=O)n1Cc1ccc(OC(F)(F)F)cc1', 'inhibition at 10 µM', 100),
  ('CCc1ccc(Cn2c(=O)nc(NCCn3c(N)nc4ccccc43)n(Cc3ccc(OC)cc3)c2=O)cc1', 'inhibition at 10 µM', 101);

Turning now to a further compound:
Read off the recorded inhibition at 10 µM for Nc1nccn1CCNc1nc(=O)n(Cc2ccc(F)cc2)c(=O)n1Cc1ccc(F)cc1
37

---

molecular target: GPR73 (prokineticin 1 receptor) (Homo sapiens, UniProt Q8TCW9); construct: expressed in transfected cells; host or cells: HEK 293; experiment: PK1 functional assay: Ca2+ mobilization on the FLIPR; type: cell-based; conditions: 10 µM; read-out: Ca^2+ Mobilization % Inh @10 µM
readout-type: inhibition at 10 µM (%)
The response must be a number in % with no trailing unit.

As a guide, the following entries are already answered.
INSERT INTO measurements (compound, output_unit, numeric_result) VALUES
  ('NC1=Nc2ccc(O)cc2CN1CCNc1nc(=O)n(Cc2ccc(F)cc2)c(=O)n1Cc1ccc(OC(F)F)cc1 [Cpd 56]', '%', 100),
  ('Nc1nc2c(F)cccc2n1CCNc1nc(=O)n(Cc2ccc(F)cc2)c(=O)n1Cc1ccc(OC(F)(F)F)cc1 [Cpd 39]', '%', 80),
  ('Cn1nnc2cc(Cn3c(=O)nc(NCCn4c(N)nc5ccccc54)n(Cc4ccc5c(c4)CCO5)c3=O)ccc21 [Cpd 78]', '%', 102),
  ('Cn1nnc2cc(Cn3c(=O)nc(NCCc4cnc(N)[nH]4)n(Cc4ccc5c(c4)CCO5)c3=O)ccc21 [Cpd 68]', '%', 78);

Read off the recorded inhibition at 10 µM for Nc1ncc(CCNc2nc(=O)n(Cc3ccc(F)cc3)c(=O)n2Cc2ccc(OC(F)(F)F)cc2)[nH]1 [Cpd 54]
96

Read off the recorded inhibition at 10 µM for NC1=Nc2cc(Cl)ccc2CN1CCNc1nc(=O)n(Cc2ccc(F)cc2)c(=O)n1Cc1ccc(OC(F)(F)F)cc1 [Cpd 50]
99

Read off the recorded inhibition at 10 µM for COc1ccc(Cn2c(NCCc3cnc(N)[nH]3)nc(=O)n(Cc3ccc(F)cc3)c2=O)cc1 [Cpd 4]
97

---

Recorded inhibition at 10 µM by entry
target: GPR73 (prokineticin 1 receptor) (Homo sapiens); construct: expressed in transfected cells; host or cells: HEK 293; assay: PK1 functional assay: Ca2+ mobilization on the FLIPR; format: cell-based; settings: 10 µM; (further determination); read-out: Ca^2+ Mobilization % Inh @10 µM
The response must be a number in % with no trailing unit.

As a guide, the following entries are already answered.
INSERT INTO assay_data (molecule, numeric_result) VALUES
  ('Nc1nc2ccccc2n1CCNc1nc(=O)n(Cc2ccc(F)cc2)c(=O)n1Cc1ccc(OC(F)F)cc1 [Cpd 20]', 101),
  ('COc1ccc(Cn2c(NCCc3cnc(N)[nH]3)nc(=O)n(Cc3ccc(SC)cc3)c2=O)cc1 [Cpd 61]', 102),
  ('Cn1nnc2cc(Cn3c(=O)nc(NCCn4c(N)nc5ccccc54)n(Cc4ccc5c(c4)CCO5)c3=O)ccc21 [Cpd 78]', 104);

Report measured inhibition at 10 µM on GPR73 (prokineticin 1 receptor) (Homo sapiens); entry: COc1ccc(Cn2c(NCCc3cnc(N)[nH]3)nc(=O)n(Cc3ccc(F)cc3)c2=O)cc1 [Cpd 4]
96

Report measured inhibition at 10 µM on GPR73 (prokineticin 1 receptor) (Homo sapiens); entry: Nc1nc2cc(F)ccc2n1CCNc1nc(=O)n(Cc2ccc(F)cc2)c(=O)n1Cc1ccc(OC(F)F)cc1 [Cpd 26]
88

---

target: GPR73 (prokineticin 1 receptor) (Homo sapiens); construct: expressed in transfected cells; host or cells: HEK 293; test: PK1 functional assay: Ca2+ mobilization on the FLIPR; format: cell-based; conditions: HEK 293 GPR73 cells; IC50 (further determination); read-out: Ca^2+ Mobilization IC50
readout-type: IC50 (nM)
The response must be a number in nM with no trailing unit.

As a guide, the following entries are already answered.
INSERT INTO assay_data (molecule, output_unit, numeric_result) VALUES
  ('Nc1nc2ccccc2n1CCNc1nc(=O)n(Cc2ccc(F)cc2)c(=O)n1Cc1ccc(OC(F)F)cc1 [Cpd 20]', 'nM', 52),
  ('COc1ccc(Cn2c(NCCc3cnc(N)[nH]3)nc(=O)n(Cc3ccc(SC)cc3)c2=O)cc1 [Cpd 61]', 'nM', 19),
  ('Nc1ncc(CCNc2nc(=O)n(Cc3ccc(F)cc3)c(=O)n2Cc2ccc(OC(F)F)cc2)[nH]1 [Cpd 53]', 'nM', 15);

Turning now to a further molecule:
Read off the recorded IC50 for Nc1nc2cc(F)ccc2n1CCNc1nc(=O)n(Cc2ccc(F)cc2)c(=O)n1Cc1ccc(OC(F)F)cc1 [Cpd 26]
15

---

target: GPR73 (prokineticin 1 receptor) (Homo sapiens, UniProt Q8TCW9); construct: expressed in transfected cells; host or cells: HEK 293; assay: PK1 functional assay: Ca2+ mobilization on the FLIPR; format: cell-based; settings: 10 µM; read-out: Ca^2+ Mobilization % Inh @10 µM
readout-type: inhibition at 10 µM (%)
The response must be a number in % with no trailing unit.

As a guide, the following entries are already answered.
INSERT INTO assay_data (compound, readout_type, numeric_result) VALUES
  ('Nc1nc2cc(F)ccc2n1CCNc1nc(=O)n(Cc2ccc(F)cc2)c(=O)n1Cc1ccc(OC(F)F)cc1 [Cpd 26]', 'inhibition at 10 µM', 92),
  ('COc1ccc(Cn2c(NCCc3cnc(N)[nH]3)nc(=O)n(Cc3ccc(SC)cc3)c2=O)cc1 [Cpd 61]', 'inhibition at 10 µM', 101),
  ('CCc1ccc(Cn2c(=O)nc(NCCc3cnc(N)[nH]3)n(Cc3ccc(OC)cc3)c2=O)cc1 [Cpd 60]', 'inhibition at 10 µM', 85);

Read off the recorded inhibition at 10 µM for COc1ccc(Cn2c(NCCn3c(N)nc4ccccc43)nc(=O)n(Cc3ccc(Cl)cc3)c2=O)cc1 [Cpd 14]
95

Read off the recorded inhibition at 10 µM for NC1=Nc2cc(F)ccc2CN1CCNc1nc(=O)n(Cc2ccc(F)cc2)c(=O)n1Cc1ccc(OC(F)F)cc1 [Cpd 46]
101

Read off the recorded inhibition at 10 µM for Nc1ncc(CCNc2nc(=O)n(Cc3ccc4c(c3)CCO4)c(=O)n2Cc2ccc(OC(F)F)cc2)[nH]1 [Cpd 82]
96

Read off the recorded inhibition at 10 µM for CSc1ccc(Cn2c(=O)nc(NCCc3cnc(N)[nH]3)n(Cc3ccc(OC(F)F)cc3)c2=O)cc1 [Cpd 80]
98

Read off the recorded inhibition at 10 µM for NC1=Nc2cccc(Cl)c2CN1CCNc1nc(=O)n(Cc2ccc(F)cc2)c(=O)n1Cc1ccc(OC(F)(F)F)cc1 [Cpd 48]
101

---

target: GPR73 (prokineticin 1 receptor) (Homo sapiens, UniProt Q8TCW9); construct: expressed in transfected cells; host or cells: HEK 293; test: PK1 functional assay: Ca2+ mobilization on the FLIPR; format: cell-based; details: HEK 293 GPR73 cells; read-out: Ca^2+ Mobilization IC50
IC50 strictly under 300 nM means Fulfilled; at 300 nM or over means Not fulfilled.

As a guide, the following entries are already answered.
INSERT INTO measurements (item_smiles, cat) VALUES
  ('CSc1ccc(Cn2c(=O)nc(NCCc3cnc(N)[nH]3)n(Cc3ccc4c(c3)CCO4)c2=O)cc1', 'Fulfilled'),
  ('COc1ccc(Cn2c(NCCn3c(N)nc4ccccc43)nc(=O)n(Cc3ccc4c(c3)nnn4C)c2=O)cc1', 'Fulfilled');

Now let's try a different one.
Confirm or reject: IC50 of COc1ccc(Cn2c(NCc3c[nH]c(N)n3)nc(=O)n(Cc3ccc(F)cc3)c2=O)cc1 lies strictly below 300 nM
Not fulfilled
